Target: T1, human OX40 on cells (human, UniProt P43489 29-277)
T1 sequence: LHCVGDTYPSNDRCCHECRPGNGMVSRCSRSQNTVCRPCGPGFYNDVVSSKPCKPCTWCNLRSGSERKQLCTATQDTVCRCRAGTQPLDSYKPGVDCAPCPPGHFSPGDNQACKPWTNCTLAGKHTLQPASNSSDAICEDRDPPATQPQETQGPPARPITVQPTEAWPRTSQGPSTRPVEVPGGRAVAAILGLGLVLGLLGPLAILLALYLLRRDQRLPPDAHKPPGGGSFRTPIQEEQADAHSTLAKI
Assay: cell-based or functional assay
Could you please report measured Proliferation EC50, CD4 T cells + CHO-CD3-CD32A for the items listed next?
Give bare numbers, in nM.

binder	assayResult
OX40.6 (antibody, human IgG1, kappa, V domains shown) VH: EVQLVQSGGGLVQPGGSLRLSCAGSGFTFSNYAMYWVRQAPGKGLEWVSAIGIGGDTFYTDSVKGRFTISRDNAKNSLSLQMNSLRAEDTAVYYCARMGTGYFFDYWGQGTLVTVSS VL: EIVLTQSPATLSLSPGERATLSCRASQSVSSYLAWYQQKPGQAPRLLIYDASNRATGIPARFSGSGSGTDFTLTISSLEPEDFAVYYCQQRSNWPLTFGPGTKVDIKR	0.032
20C1 (antibody, V domains shown, also called 20C1.F2.D1; 20C1.F2) VH: EAQLVQSGGGLVHPGGSLRLSCADSGFTFSSYAMYWVRQAPGKGLEWVSAIDTDGGTFYADSVRGRFTISRDNAKNSLYLQMNGLRAEDMAVYFCARLGEGYFFDYWGQGTLVTVSS VL: EIVLTQSPATLSLSPGERATLSCRASQSVSSYLAWYQQKPGQAPRLLIYDASNRATGIPARFSGSGSGTDFTLTISSLEPEDFAVYYCQQRSNWPPTFGGGTKVEIK	0.008
3F4 (antibody, V domains shown, also called 3F4.G11.D2; 3F4.G11) VH: QVQLVQSGAEVKKPGASVKVSCKASGNTFTSYDVNWVRQATGQGLEWMGWMNPNSGNTGYAPKFQGRVTMTRNTSISTAYMELSSLRSEDTAVYYCARIYSSSYNWFDPWGQGTLVTVSS VL: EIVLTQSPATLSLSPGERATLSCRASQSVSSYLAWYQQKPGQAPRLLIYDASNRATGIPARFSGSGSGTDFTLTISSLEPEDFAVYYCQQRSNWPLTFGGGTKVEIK	0.016

Please supply Proliferation EC50, CD4 T cells + CHO-CD3-CD32A for each of the following items, keeping them in order.
1. OX40.18 (antibody, human IgG1, kappa, V domains shown, g1f) VH: QVQLVQSGAEVKKPGASVKVSCKASGYTFTSYDVNWVRQATGQGLEWMGWMNPNSGNTGYAPKFQGRVTMTRDTSISTAYMELSSLRSEDTAVYYCARIYSSSYNWFDYWGQGTLVTVSS VL: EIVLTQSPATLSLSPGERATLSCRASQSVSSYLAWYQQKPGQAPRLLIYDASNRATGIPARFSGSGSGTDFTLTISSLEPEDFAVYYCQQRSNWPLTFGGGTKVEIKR
2. OX40.17 (antibody, human IgG1, kappa, V domains shown) VH: EVQLVESGGGLVQPGGSLRLSCAASGFTFSSYDMHWVRQTTGKGLEWVSVIGTAGDTYYPGSVKGRFTISRENAKNSLYLQMNSLRAGDTAVYYCARGGMGNYFDYWGQGTLVTVSS VL: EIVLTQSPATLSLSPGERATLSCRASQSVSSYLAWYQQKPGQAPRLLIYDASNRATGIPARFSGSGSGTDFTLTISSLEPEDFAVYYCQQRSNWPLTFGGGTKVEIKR

[0.23, 0.009]
